Please go through the items and note down their CHEAL herbicidal rating.
Test system: CHEAL (Lambsquarters, Common)
Experiment: Postemergence herbicidal evaluation
Format: in vivo, Chenopodium album
Settings: postemergence, rate 0.1250 kg/ha
Give bare numbers.

Answered examples (2):
| compound | tested system | observed measurement |
| --- | --- | --- |
| CN1C(=O)CS/C1=N/c1cc(-n2c(=O)cc(C(F)(F)F)n(C)c2=O)c(F)cc1Cl | CHEAL (Lambsquarters, Common) | 9.0 |
| C=CCN1C(=O)CSC1=Nc1cc(N2C(=O)C3=C(CCCC3)C2=O)c(F)cc1Cl | CHEAL (Lambsquarters, Common) | 9.0 |

Could you report CHEAL herbicidal rating for every entry in the following list?
1. C=CCN1C(=O)C(CC(=O)OCCF)SC1=Nc1cc(-n2c(=O)cc(C(F)(F)F)n(C)c2=O)c(F)cc1Cl (stereo not shown)
2. CCOC(=O)CN1C(=O)C2(CC2)SC1=Nc1cc(-n2c(=O)cc(C(F)(F)F)n(C)c2=O)c(F)cc1Cl

1: 9.0; 2: 9.0

Values from patent US20020137929A1
